- Tested on: HepG2 (Hepatocellular Carcinoma)
- protocol-details: Cell viability analysis, hepatic cancer HepG2
- Assay type: cell-based, human
- protocol-conditions: drug 10 μM, 72 hours, WST-1, OD450 nm
experimental-readout: cell viability (survival rate), HepG2
# output: bare number, no unit

Study these solved cases before continuing.
compound: CN(C/C=C/C#CC(C)(C)C)Cc1cccc2ccccc12.Cl [Terbinafine HCl (Lamisil)]
measured-value: 91.1
//
compound: O=C([O-])C(O)[C@H](O)[C@@H](O)[C@H](O)[C@H](O)CO.O=C([O-])C(O)[C@H](O)[C@@H](O)[C@H](O)[C@H](O)CO.[Ca+2] (stereo partly shown) [Calcium Gluceptate]
measured-value: 76.88
//
compound: CC1(C)S[C@@H]2[C@H](NC(=O)[C@H](N)c3ccc(O)cc3)C(=O)N2[C@H]1C(=O)[O-].[Na+] [Amoxicillin sodium (Amox), Amoxicillin sodium]
measured-value: 80.8

Query string: May I ask what cell viability (survival rate), HepG2 has been recorded for CN(C)CCCN1c2ccccc2CCc2ccc(Cl)cc21.Cl [Clomipramine HCl (Anafranil)] ?
Result string: 115.6

* * *

- System: SAS (Tongue squamous cell carcinoma)
- protocol-details: Cell viability analysis, tongue cancer SAS
- Type: cell-based, human
Just a reminder that ties go to rule not met: only The results of antibiotic drug inhibiting cancer cell lines (cell viability analysis), SAS strictly below 50 counts as rule met.

Sample answers from the record:
molecule: CC(=O)Oc1ccccc1C(=O)Nc1ncc([N+](=O)[O-])s1 [Nitazoxanide (Alinia, Annita)]
experimental-system: SAS (Tongue squamous cell carcinoma)
assigned-category: rule not met
--
molecule: CS(=O)(=O)c1ccc([C@@H](O)[C@@H](CO)NC(=O)C(Cl)Cl)cc1 [Thiamphenicol (Thiophenicol)]
experimental-system: SAS (Tongue squamous cell carcinoma)
assigned-category: rule not met
--
molecule: Cl.c1ccc([C@H]2CN3CCSC3=N2)cc1 [Levamisole Hydrochloride (Ergamisol)]
experimental-system: SAS (Tongue squamous cell carcinoma)
assigned-category: rule not met

Query string: Does the reported The results of antibiotic drug inhibiting cancer cell lines (cell viability analysis), SAS of Cc1cc(C2CCCCC2)n(O)c(=O)c1.NCCO [Ciclopirox ethanolamine] stay below 50?
Result string: rule met

Query string: Repeat for the following molecule: N#C[C@@H]1C[C@@H]2C[C@H]2N1C(=O)[C@@H](N)C12CC3CC(CC(O)(C3)C1)C2 [Saxagliptin (BMS-477118, Onglyza)]
Result string: rule not met

Query string: Same thing, different molecule: Cc1cc(C#N)cc(C)c1Oc1nc(Nc2ccc(C#N)cc2)nc(N)c1Br [Etravirine (TMC125)]
Result string: rule met

* * *

Here, each record is paired with measured The results of antibiotic drug inhibiting cancer cell lines (cell viability analysis), T24 data.
- Tested on: T24
- protocol-details: Cell viability analysis, bladder cancer T24
- Type: cell-based, human
Respond with the number and no other words.

Look over these answered cases.
compound: CC1(C)[C@@H](O[C@H]2O[C@H](C(=O)O)[C@@H](O)[C@H](O)[C@H]2O[C@@H]2O[C@H](C(=O)O)[C@@H](O)[C@H](O)[C@H]2O)CC[C@]2(C)[C@H]3C(=O)C=C4[C@@H]5C[C@@](C)(C(=O)O)CC[C@]5(C)CC[C@@]4(C)[C@]3(C)CC[C@@H]12 [Ammonium Glycyrrhizinate (AMGZ), Ammonium Glycyrrhizinate]
measured-value: 107.9
--
compound: O=C(Nc1ccc([N+](=O)[O-])cc1Cl)c1cc(Cl)ccc1O [Niclosamide (Niclocide)]
measured-value: 26.49

Let's switch to this compound now.
Query string: Look up The results of antibiotic drug inhibiting cancer cell lines (cell viability analysis), T24: CS(=O)(=O)c1ccc([C@@H](O)[C@@H](CO)NC(=O)C(Cl)Cl)cc1
Result string: 164

* * *

- Test system: PC3 (p53−) (Prostate Adenocarcinoma)
- protocol-details: Cell viability analysis, prostate cancer PC3
- Format: cell-based, human
- protocol-conditions: Homo sapiens, 72 h, drug 10 μM, 72 hours, WST-1, OD450 nm; read-out: cell viability (survival rate), PC3
# viability at 10 µM per entry
Use % as the unit, but write only the number.

compound: CN1CCC(=C2c3ccccc3CCc3cccnc32)CC1 [Azatadine dimaleate]
experimental-system: PC3 (p53−) (Prostate Adenocarcinoma)
experimental-readout: viability at 10 µM
measured-value: 104

Query string: Would you mind telling me what viability at 10 µM value was observed for CC(=O)SCC(Cc1ccccc1)C(=O)NCC(=O)OCc1ccccc1 (centres unmarked) ?
Result string: 107

Query string: Next up: Cc1cn([C@H]2C=C[C@@H](CO)O2)c(=O)[nH]c1=O
Result string: 73.5

Query string: Next record, please: Cc1cc(=O)[nH]c(=S)[nH]1
Result string: 151

Query string: And for CCCNC(=O)NS(=O)(=O)c1ccc(Cl)cc1 [Chlorpropamide] ?
Result string: 44.4

* * *

- Test system: NIH: OVCAR-3
- protocol-details: Cell viability analysis, ovarian cancer NIH: OVCAR-3
- Format: cell-based, human
- protocol-conditions: Homo sapiens, 72 h; NIH-OVCAR-3; repeated experiment; read-out: The results of antibiotic drug inhibiting cancer cell lines (cell viability analysis), NIH-OVCAR-3
Label Met when viability at 10 µM is strictly below 80%; at or above that, label Not met.

compound: NC(=O)N/N=C/c1ccc([N+](=O)[O-])o1
assigned-category: Not met
--
compound: CC(C)CN(C[C@@H](O)[C@H](Cc1ccccc1)NC(=O)O[C@H]1CCOC1)S(=O)(=O)c1ccc(N)cc1
assigned-category: Not met

Query string: Is the reported viability at 10 µM for CCCCCCCCCCCCCCCC[N+](C)(C)CCN(Cc1ccc(OC)cc1)c1ncccn1 [Thonzonium Bromide] strictly below 80%?
Result string: Met

Query string: Input CC(C)(C)CC(C)(C)c1ccc(O)c(Cc2ccc(Cl)cc2Cl)c1
Result string: Not met

Query string: What do you have for CC[C@H](C)C(=O)O[C@H]1CCC=C2C=C[C@H](C)[C@H](CC[C@@H]3C[C@@H](O)CC(=O)O3)[C@H]21 ?
Result string: Not met

* * *

- Tested on: HeLa (Cervix Adenocarcinoma)
- protocol-details: Cell viability analysis, cervical cancer HeLa
- Type: cell-based, human
- protocol-conditions: Homo sapiens, HeLa; drug 10 μM, 72 hours, WST-1, OD450 nm; read-out: cell viability (survival rate), HeLa
Where a name gives a salt, the structure may show the parent alone.
Reported viability at 10 µM by item:
// return numeric value only (unit: %, not printed)

Illustrative cases are given below, each with its answer.
molecule: c1ccc2c(c1)sc1ccccc12 [Dibenzothiophene]
reading-unit: %
measured-value: 94.6

molecule: O=C([O-])[C@H](O)[C@@H](O)[C@H](O)[C@H](O)CO.[Na+] [Sodium Gluconate]
reading-unit: %
measured-value: 73

molecule: CNC[C@H](O)[C@@H](O)[C@H](O)[C@H](O)CO [Meglumine]
reading-unit: %
measured-value: 74.1

molecule: Clc1ccc(C(Cn2ccnc2)OCc2c(Cl)cccc2Cl)c(Cl)c1 (stereo not drawn) [Isoconazole nitrate (Travogen), Isoconazole nitrate]
reading-unit: %
measured-value: 165

molecule: O=C(O)c1ccccc1 [Benzoic acid]
reading-unit: %
measured-value: 59.6

molecule: CCC[S+]([O-])c1ccc2[nH]c(NC(=O)OC)nc2c1 (stereo not drawn) [Albendazole Oxide (Ricobendazole), Albendazole Oxide]
reading-unit: %
measured-value: 56

molecule: CCC1(C)CC(=O)NC(=O)C1 [Bemegride]
reading-unit: %
measured-value: 62.7

molecule: O=C(Nc1ccccc1)c1ccccc1O [Salicylanilide]
reading-unit: %
measured-value: 118

molecule: COc1cccc(N(C)C(=S)Oc2ccc3c(c2)CCCC3)n1 [Liranaftate]
reading-unit: %
measured-value: 89

molecule: COC(=O)C1=CO[C@@H](O[C@@H]2O[C@H](CO)[C@@H](O)[C@H](O)[C@H]2O)[C@@H]2C(CO)=CC[C@H]12 [Geniposide]
reading-unit: %
measured-value: 81

Query string: If you can, please state the reported viability at 10 µM value of C=C(NC(=O)C(=C)NC(=O)c1csc(C2=N[C@@H]3c4csc(n4)[C@H]4NC(=O)c5csc(n5)[C@H]([C@](C)(O)[C@@H](C)O)NC(=O)[C@H]5CSC(=N5)/C(=C/C)NC(=O)[C@H]([C@@H](C)O)NC(=O)c5csc(n5)[C@]3(CC2)NC(=O)[C@H](C)NC(=O)C(=C)NC(=O)[C@H](C)NC(=O)[C@H]([C@@H](C)CC)N[C@@H]2C=Cc3c([C@H](C)O)cc(nc3[C@H]2O)C(=O)O[C@@H]4C)n1)C(N)=O [Thiostrepton] .
Result string: 37.8

Query string: And then CC(C)(C)C(=O)C(Oc1ccc(Cl)cc1)n1ccnc1 (stereo not drawn) [Climbazole] , what is it?
Result string: 94

Query string: Same again, this time with CCOC(=O)CCC(=O)O[C@H]1[C@H](O[C@@H]2[C@@H](C)[C@H](O[C@H]3C[C@@](C)(OC)[C@@H](O)[C@H](C)O3)[C@@H](C)C(=O)O[C@H](CC)[C@@](C)(O)[C@H](O)[C@@H](C)C(=O)[C@H](C)C[C@@]2(C)O)O[C@H](C)C[C@@H]1N(C)C [Erythromycin Ethylsuccinate]
Result string: 148

Query string: Do the same for Cc1cc(=O)n(-c2ccccc2)n1C [Antipyrine] please
Result string: 76.8

Query string: Queued: Cc1cc(C(C)(C)C)cc(C)c1CC1=NCCN1 [Xylometazoline HCl]
Result string: 107

Query string: What do you get for CC(C)OC(=O)OCOP(=O)(CO[C@H](C)Cn1cnc2c(N)ncnc21)OCOC(=O)OC(C)C [Tenofovir Disoproxil Fumarate] ?
Result string: 85.7

Query string: Likewise for CCC[C@H](NC(=O)[C@@H]1[C@H]2CCC[C@H]2CN1C(=O)[C@@H](NC(=O)[C@@H](NC(=O)c1cnccn1)C1CCCCC1)C(C)(C)C)C(=O)C(=O)NC1CC1 [Telaprevir (VX-950), Telaprevir] ?
Result string: 84

Query string: One more molecule: CN(C)C(=O)C(CCN1CCC(O)(c2ccc(Cl)cc2)CC1)(c1ccccc1)c1ccccc1 [Loperamide hydrochloride]
Result string: 73
